Entries and their absolute recovery
# experimentDescription: absolute recovery over mixed-bed multilayer solid-phase extraction; higher = better recovery
# statedConditions: wastewater effluent; enrichment method: SPE

# compound, absolute recovery (%)
records = [
    ("CCCN(CCOc1c(Cl)cc(Cl)cc1Cl)C(=O)n1ccnc1 [Prochloraz]", 93.9),
    ("CNC(=C[N+](=O)[O-])NCCS(=O)Cc1ccc(C[NH+](C)C)o1 (centres undefined) [Ranitidin-S-oxid]", 67.2),
    ("CC(=NC#N)N(C)Cc1ccc(Cl)nc1 [Acetamiprid]", 89),
    ("O=C(NCCN1CCOCC1)c1ccc(Cl)cc1 [Moclobemid]", 90.8),
    ("CC(C)(Oc1ccc(C(=O)c2ccc(Cl)cc2)cc1)C(=O)[O-] [Fenofibric-acid]", 82.7),
    ("CC1COC(=O)c2cc3c(cc21)C(C)(C)C(C)C3(C)C (centres undefined) [Galaxolidon]", 86.1),
    ("CC=C1[NH+](C)C(C)CC1(c1ccccc1)c1ccccc1 (centres undefined) [EDDP (=2-Ethylidene-1-5-dimethyl-3-3-diphenylpyrrolidin)]", 60.2),
    ("Cc1cccc(N(C)C(=S)Oc2ccc3ccccc3c2)c1 [Tolnaftat]", 75.8),
    ("Cc1ccc(NC=O)c(C)c1 [2-4-dimethylphenylformamid]", 99.8),
]
